Test: folding stability dG unfold (combined trypsin and chymotrypsin); higher = more stable
Assign class by folding stability dG unfold: not lower than 1 kcal/mol means YES; lower than 1 kcal/mol means NO.

Consider the following illustrative entries.
{"columns": ["sequence_content", "label_class"],
 "data": [
  ["SITIKIPLKPGYPYALRIHFYNPNGKPREMDMNVTRKPDGEVEIPIKIPDKDIPPGQDIRIQSIEIYPMKSA [r9_359_TrROS]", "YES"],
  ["SAGGSAGGSAGGPPIIEFPIKGDNPEQAKRFAKEVVDLLPDQNPENVDITTTDGWVRITSAGGSAGGSAGGS [r10_182_TrROS]", "NO"],
  ["SAGGSAGGSAGGPITSIDTSGPVITVTATTPGGSVTMDVPPDLTLEEVEALLKANPELLNSAGGSAGGSAGG [r7_373_JUSTAS]", "NO"],
  ["SAGGSAGGSAGMTLRLKIRVYDPETREEVEEKEIEVELPPGASLEELLAALPPEQVEVEFSAGGSAGGSAGG [r17_339_TrROS_Hall]", "NO"],
  ["SAGGKTIVIKVKTKEQAKALAEELAKKLKDAGYTVTVTYDEETGVVTVTVTVKVNGKTKKITLVLELPSAGG [r13_641_TrROS_Hall]", "YES"]
]}

Is it the case that SAGGIKEVKFDPKTNTLTVYLPEVGATITYNPTAGKLEIYSKDGKPKTIDVPTPSEMKKAILKAYKELKSAG [r5_467_TrMRF] has folding stability dG unfold reaching or exceeding 1 kcal/mol?
YES

Does folding stability dG unfold meet or surpass 1 kcal/mol for SEEEIEERIKKLAEELGFKVTEIKIEKTDNKLTVTVTITLPNGKKLTFTVTRDKNGKLTFTPEQLKKALKSA [r9_85_TrROS_Hall] ?
YES

Please indicate if the recorded folding stability dG unfold for SAGGGPDLVIDVEILEIRVEPEPGKTATIRVRALIYNPETDTWTLAEFEIRIPDDGSVEVRFRVEPLRSAGG [r13_917_TrMRF] meets or exceeds 1 kcal/mol.
YES

Does SAGGSAGGSAGGSNIPSDSTVTSKGSSDTTTSTYYNPETGTTLVTTTPPDGVPTTTTTASAGGSAGGSAGGS [r10_592_JUSTAS] have a reported folding stability dG unfold of at least 1 kcal/mol?
NO

The values you see were collected from the supplement of paper PMC12764529.
